Hey, just so you know, these numbers are from BindingDB's records for patent US20250236619.

- assayed system: Mitogen-activated protein kinase kinase kinase kinase 1 (Homo sapiens, UniProt Q92918)
- Sequence (Q92918 whole entry): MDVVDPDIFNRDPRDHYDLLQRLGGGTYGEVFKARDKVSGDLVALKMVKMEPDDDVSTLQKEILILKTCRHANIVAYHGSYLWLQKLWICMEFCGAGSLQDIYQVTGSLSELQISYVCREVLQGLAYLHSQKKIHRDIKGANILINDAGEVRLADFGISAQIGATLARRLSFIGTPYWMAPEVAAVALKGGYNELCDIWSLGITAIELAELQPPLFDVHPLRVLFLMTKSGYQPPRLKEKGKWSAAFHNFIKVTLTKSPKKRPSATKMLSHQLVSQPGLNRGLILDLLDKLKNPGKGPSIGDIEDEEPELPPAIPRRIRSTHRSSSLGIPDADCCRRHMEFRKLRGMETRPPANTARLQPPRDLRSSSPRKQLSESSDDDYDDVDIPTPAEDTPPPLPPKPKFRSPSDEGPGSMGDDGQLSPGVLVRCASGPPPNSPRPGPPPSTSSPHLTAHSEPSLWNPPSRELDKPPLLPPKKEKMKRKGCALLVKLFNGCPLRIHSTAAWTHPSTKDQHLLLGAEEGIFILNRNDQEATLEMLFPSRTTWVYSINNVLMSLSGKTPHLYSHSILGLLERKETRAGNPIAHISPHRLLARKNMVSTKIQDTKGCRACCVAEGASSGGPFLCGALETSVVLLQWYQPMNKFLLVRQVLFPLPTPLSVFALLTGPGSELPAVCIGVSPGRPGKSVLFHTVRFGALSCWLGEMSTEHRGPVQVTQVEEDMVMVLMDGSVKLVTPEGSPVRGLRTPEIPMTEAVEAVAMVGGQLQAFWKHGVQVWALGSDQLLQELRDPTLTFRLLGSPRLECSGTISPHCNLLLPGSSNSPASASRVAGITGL
- assay procedure: Assay for In Vitro Inhibitory Activity Against HPK1 Kinase
quantity name: IC50
Answer as a quantity: numeral, then unit.

Recorded results for 2 molecules are shown here.
| molecule | IC50 |
| --- | --- |
| [2H]C([2H])(c1nc(Nc2ccc(-c3cnn4c3CC3(CC3)C4)c3c2C(=O)NC3)ccc1C1CCOCC1)N(C)C | 2.7 nM |
| CN(C)Cc1nc(Nc2cnc(-c3nnc4ccc5c(n34)CCC5)c3c2C(=O)NC3)ccc1C1CCOCC1 | 32 nM |

Now for a further molecule.
Fill in: IC50 of CN(C)Cc1nc(Nc2ccc(-c3cnc4cnc5occc5n34)c3c2C(=O)NC3)ccc1C1CC(=O)N(C)C1 (stereo not drawn) is ___
5.6 nM

* * *

- assayed system: Mitogen-activated protein kinase kinase kinase kinase 1 (Homo sapiens, UniProt Q92918)
- assay procedure: Assay for In Vitro Inhibitory Activity Against HPK1 Kinase
quantity name: IC50 (nM)
Write down the numeric answer in nM and omit the unit.

| compound | scale unit | IC50 |
| --- | --- | --- |
| CN(C)Cc1nc(Nc2ccc(-c3cnn4c3CC3(CC3)C4)c3c2C(=O)NC3)ccc1C1CCOCC1 [US20250236619, Compound I-34] | nM | 2.1 |
| CN(C)Cc1nc(Nc2cnc(-c3cnn4c3CC3(CC3)C4)c3c2C(=O)NC3)ccc1C1CCOCC1 [US20250236619, Compound I-55] | nM | 15 |
| CN(C)Cc1nc(Nc2cnc(-c3cnn4ccc5occc5c34)c3c2C(=O)NC3)ccc1C1CCOCC1 [US20250236619, Compound I-46] | nM | 2.1 |
| CN(C)Cc1nc(Nc2ccc(-c3cnn4ccc5occc5c34)c3c2C(=O)NC3)ccc1C1CCN(C)CC1 [US20250236619, Compound I-83] | nM | 2 |

Consider the compound CN(C)Cc1nc(Nc2ccc(-c3cnc4cnc5occc5n34)c3c2C(=O)NC3)ccc1C1CCOC1 (stereo not given) [US20250236619, Compound I-54] and give its measured IC50.
6.6

Give its IC50 value. Item: CNCc1nc(Nc2ccc(-c3cnn4ccc5occc5c34)c3c2C(=O)NC3)sc1C1CCOCC1 [US20250236619, Compound I-85]
3.8

Form field: reported IC50 of CN(C)Cc1nc(Nc2ccc(-c3cnc4cnc5occc5n34)c3c2C(=O)NC3)ccc1C1CCCO1 (stereo not given) [US20250236619, Compound I-65]
21

// query IC50 value for entry CN(C)Cc1nc(Nc2ccc(-c3cnc4ccc5occc5n34)c3c2C(=O)NC3)ccc1N1CCN(C)C1=O [US20250236619, Compound I-50]
29

Suppose we examine the compound CN(C)Cc1nc(Nc2ccc(-c3cnn4ccc5occc5c34)c3c2C(=O)NC3)ccc1N1CCN(C)C(=O)C1 [US20250236619, Compound I-76] ; what IC50 value has been reported?
1.8

Look up IC50: CN(C)Cc1nc(Nc2ccc(-c3cnn4ccc5occc5c34)c3c2C(=O)NC3)ccc1C1CC(=O)N(C)C1 (stereo not given) [US20250236619, Compound I-59]
2.3

Bench note: what IC50 did CN(C)Cc1nc(Nc2ccc(-c3cnc4cnc5occc5n34)c3c2C(=O)NC3)ccc1C1CCOCC1 [US20250236619, Compound I-48] show?
2.6

If you can, please state the reported IC50 value of O=C1NCc2c(-c3cnn4ccc5occc5c34)ccc(Nc3ccc(N4CCOCC4)c([C@H]4CCCN4)n3)c21 [US20250236619, Compound I-57] .
17

IC50 lookup needed for CN(C)Cc1nc(Nc2ccc(-c3ncnc4[nH]c5c(c34)CCC5)c3c2C(=O)NC3)ccc1C1CCOCC1 [US20250236619, Compound I-24] , thanks.
11

Please give the measured IC50 for this compound: CN(C)Cc1nc(Nc2cnc(-c3cnn4ccc5occc5c34)c3c2C(=O)NC3)ccc1N1CCOCC1 [US20250236619, Compound I-47]
4.7

Dear colleague, I am looking for the recorded IC50 of the following compound: CN(C)Cc1nc(Nc2ccc(-c3cnn4ccc5occc5c34)c3c2C(=O)NC3)ccc1C1CCOCC1 [US20250236619, Compound I-38]
1.7

Quick one: IC50 of CN(C)Cc1nc(Nc2ccc(-c3cnc4ccc5occc5n34)c3c2C(=O)NC3)ccc1C1CCN(C)C(=O)C1 (stereo not given) [US20250236619, Compound I-66] ?
2.5

* * *

Each record here notes measured pIC50.
- assayed system: Mitogen-activated protein kinase kinase kinase kinase 1 (Homo sapiens, UniProt Q92918)
- assay procedure: Assay for In Vitro Inhibitory Activity Against HPK1 Kinase
Note on pIC50: it is the negative log10 of concentration, concentration in mol/L.

Example compounds with recorded pIC50:
| compound | pIC50 |
| --- | --- |
| CN(C)Cc1nc(Nc2ccc(-c3cnn4ccc5occc5c34)c3c2C(=O)NC3)ccc1-c1ccn(C)c(=O)c1 | 8.70 |
| CN(C)Cc1nc(Nc2ccc(-c3cnc4ccc5occc5n34)c3c2C(=O)NC3)ccc1N1CCCC1=O | 7.44 |
| CN(C)Cc1nc(Nc2ccc(-c3cnc4cnc5occc5n34)c3c2C(=O)NC3)ccc1C1CCN(C)CC1 | 8.55 |

Please report the recorded pIC50 for [2H]C([2H])(c1nc(Nc2cnc(-c3ccnc4c3c3c(n4C)CCC3)c3c2C(=O)NC3)ccc1C1CCOCC1)N(C)C .
8.77

Item under review: CN(C)Cc1nc(Nc2ccc(-c3cnn4c3CC3(CC3)C4)c3c2C(=O)NC3)ccc1C1CCN(C)C(=O)C1 (centres undefined) . Reported pIC50?
8.34

Fill in the blank: the reported pIC50 of CC(=O)N(C)c1ccc(Nc2ccc(-c3cnn4ccc5occc5c34)c3c2C(=O)NC3)nc1CN(C)C is ____.
8.12

What value of pIC50 has been reported for the following compound? CN(C)Cc1nc(Nc2ccc(-c3cnc4ccc5c(n34)CCO5)c3c2C(=O)NC3)ccc1C1CCOCC1
8.19

What does the record list as pIC50 for CN(C)Cc1nc(Nc2ccc(-c3cnn4ccc5occc5c34)c3c2C(=O)NC3)ccc1C1CCCO1 (centres undefined) ?
8.54

Quick check: pIC50 of CN(C)Cc1nc(Nc2ccc(-c3ccnc4c3c3c(n4C)CCC3)c3c2C(=O)NC3)ccc1C1CCN(C)C(=O)C1 (centres undefined) ?
8.59
